Target: T1, Gephyrin E domain (gephE) (Rattus norvegicus, UniProt Q03555)
T1 chain: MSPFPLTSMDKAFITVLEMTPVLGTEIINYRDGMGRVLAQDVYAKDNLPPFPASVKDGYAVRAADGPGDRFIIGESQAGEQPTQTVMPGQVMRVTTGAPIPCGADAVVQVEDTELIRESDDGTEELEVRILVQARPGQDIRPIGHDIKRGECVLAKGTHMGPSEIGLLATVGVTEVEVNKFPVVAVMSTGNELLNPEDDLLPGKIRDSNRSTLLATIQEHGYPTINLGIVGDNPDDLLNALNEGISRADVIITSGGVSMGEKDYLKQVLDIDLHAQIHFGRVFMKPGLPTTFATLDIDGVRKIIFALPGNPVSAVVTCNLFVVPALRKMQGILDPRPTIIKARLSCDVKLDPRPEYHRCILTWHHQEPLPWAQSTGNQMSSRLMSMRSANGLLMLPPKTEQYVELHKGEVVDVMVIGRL

| binder | EC50 |
| --- | --- |
| DLRSNDWSIVGSLPR [GlyRβ_Full_Positional_Scan_128] | 380 µM |
| DLRSNDFSLVGSLPR [GlyRβ_Full_Positional_Scan_164] | 268 µM |
| DLRSNDFSIIGSLPR [GlyRβ_Full_Positional_Scan_183] | 107 µM |
| DLRSNDFGIVGSLPR [GlyRβ_Full_Positional_Scan_142] | 505 µM |
| DLRSNDFSMVGSLPR [GlyRβ_Full_Positional_Scan_178] | 228 µM |
| DLRSNDYSIVGSLPR [GlyRβ_Full_Positional_Scan_129] | 2200 µM |
| DLRSNDFTIVGSLPR [GlyRβ_Full_Positional_Scan_156] | 198 µM |
| DLRSNDFSCVGSLPR [GlyRβ_Full_Positional_Scan_177] | 118 µM |
| DLRSNDFSVVGSLPR [GlyRβ_Full_Positional_Scan_166] | 255 µM |

meta.source: paper PMC7753147
